- experiment: chemical genetic growth profiling, strain panel (AID 1159580);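 note: tested at 20 µM; growth read once vehicle control cultures reached saturation at 30 °C; 1 = growth at the plate median or of vehicle wells; lower values mean less growth of the strain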
- experimental context: S. cerevisiae deletion strains, growth OD, locus YNL209W, strain ssb2
The campaign covered roughly 5,500 compounds. About 2,000 (36%) were called active. About 18% were inconclusive and are not listed. Cut-off read from the data, not from the text of the source: active = normalized growth mostly below about 0.91 (no sharp cut-off); inconclusive = no clear call, values can overlap the other calls; inactive = mostly above about 0.92. Some of the results follow.
Possible outcomes: 1 (active), -1 (inactive)

{"columns": ["compound", "label"],
 "data": [
  ["CN(C)CCOC(=O)C(c1ccccc1)C1(O)CCCC1 (configuration not stated)", -1],
  ["CCN(CCCc1ccccc1)CCCc1ccccc1", -1],
  ["COc1ccc(C(=O)N2CCCC2=O)cc1", -1],
  ["Nc1cc(-c2ccncc2)c[nH]c1=O", 1],
  ["Nc1cc(C(Cl)=C(Cl)Cl)c(S(N)(=O)=O)cc1S(N)(=O)=O", -1],
  ["CN(C(=O)CN(CCO)CC(=O)N(C)C(C)(C)Cc1ccccc1)C(C)(C)Cc1ccccc1", -1],
  ["c1ccc2c(c1)CN1CCCC1=N2", -1],
  ["Nc1ccncc1", -1],
  ["C=C[C@H]1CN2CC[C@H]1C[C@@H]2[C@H](O)c1ccnc2ccccc12", -1],
  ["C[C@H](CCC(=O)O)[C@H]1CCC2C3C(CC[C@@]21C)[C@@]1(C)CC[C@@H](O)C[C@H]1C[C@H]3O (some centres not stated)", -1],
  ["CSc1ccc2c(c1)N(CCC1CCCCN1C)c1ccccc1S2 (configuration not stated)", 1],
  ["COc1ccc(C(=O)CC(=O)c2ccc(C(C)(C)C)cc2)cc1", -1]
]}
